Target: MAPKAPK2 (Homo sapiens, UniProt P49137)
Sequence (P49137 whole entry, species assumed): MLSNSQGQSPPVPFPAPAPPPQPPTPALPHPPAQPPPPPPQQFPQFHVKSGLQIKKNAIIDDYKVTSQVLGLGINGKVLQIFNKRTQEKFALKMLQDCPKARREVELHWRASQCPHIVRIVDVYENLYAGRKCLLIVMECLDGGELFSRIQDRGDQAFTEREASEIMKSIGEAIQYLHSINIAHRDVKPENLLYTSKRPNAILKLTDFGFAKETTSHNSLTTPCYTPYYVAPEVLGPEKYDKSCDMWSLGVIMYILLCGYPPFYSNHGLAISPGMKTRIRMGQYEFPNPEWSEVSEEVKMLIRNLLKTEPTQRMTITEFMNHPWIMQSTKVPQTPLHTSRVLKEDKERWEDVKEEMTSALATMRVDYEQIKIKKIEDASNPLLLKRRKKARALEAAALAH
endpoint label: IC50

compound	test value
CN(C)C1CCN(c2cc3c(cn2)-n2cnnc2-c2cc(-c4ccc(C#N)cc4)cn2C3)CC1 [Compound 321]	100 to 200 nM
CN[C@@H]1CN(c2ccc3c(c2)Cn2cc(-c4ccc(F)cc4)cc2-c2nccn2-3)C[C@H]1CO (relative stereo) [Compound 491]	< 50 nM
NC[C@H]1CN(c2ccc3c(c2)Cn2cc(-c4ccc(F)cc4)cc2-c2nccn2-3)C[C@@H]1O [Compound 365]	50 to 100 nM
CN(C)C[C@H]1CN(c2ccc3c(c2)Cn2cc(-c4ccc(C#N)cc4)cc2-c2nncn2-3)C[C@@H]1O (racemic) [Compound 74]	< 50 nM

* * *

Molecular target: MAPKAPK2 (Homo sapiens)
Assay: MK2 Enzymatic Assay
Type: biochemical
Details: 0.5 nM MAPKAPK2, 3 μM ATP, 2 μM Ser/Thr4 peptide, 23° C., values given as concentration bins
pIC50: −log10 of the molar value.
The entries below come with measured pIC50 values attached.

smiles structure	pIC50
CN[C@H]1CCN(c2ccc3c(c2)Cn2cc(-c4ccc(F)cc4)cc2-c2ncnn2-3)C1	7.00 to 7.30
CN(C)[C@H]1CCN(c2ccc3c(c2)Cn2cc(-c4ccc(F)cc4)cc2-c2nnnn2-3)C1	7.00 to 7.30
CN(C)C[C@H]1CCN(c2ccc3c(c2)Cn2cc(-c4ccc(C#N)cc4)cc2-c2ncnn2-3)C1	> 7.30
C[C@@H]1CN(c2ccc3c(c2)Cn2cc(-c4ccc(C#N)cc4)cc2-c2nnnn2-3)C[C@H](C)N1	7.00 to 7.30
CN[C@H]1CCN(c2ccc3c(c2)Cn2c(cc(-c4ccc(C#N)cc4)c2Cl)-c2nncn2-3)C1	7.00 to 7.30
CN(C)[C@H]1CN(c2ccc3c(c2)Cn2cc(-c4ccc(C#N)cc4)cc2-c2nncn2-3)C[C@@H]1O	7.00 to 7.30
CN(C)C[C@H]1CN(c2ccc3c(n2)Cn2cc(-c4ccc(C#N)cc4)cc2-c2nccn2-3)C[C@H]1O	> 7.30

* * *

Lab note: IC50 readings collected with MAPKAPK2 (Homo sapiens) for the following compounds.

compound	IC50
CN(C)C1CN(c2ccc3c(c2)Cn2cc(-c4ccc(C#N)cc4)cc2-c2nnnn2-3)C1	100 to 200 nM
C[C@H](CO)NC[C@H]1CCN(c2ccc3c(c2)Cn2cc(-c4ccc(F)cc4)cc2-c2ncnn2-3)C1	< 50 nM
O[C@@H]1CN(c2ccc3c(c2)Cn2cc(-c4ccc(F)cc4)cc2-c2nccn2-3)C[C@H]1CN1CCCC1 (relative stereo) [Compound 472]	< 50 nM
CNC[C@H]1CN(c2ccc3c(c2)Cn2cc(-c4ccc(F)cc4)cc2-c2ncnn2-3)C[C@H]1F (relative stereo)	< 50 nM

* * *

Molecular target: MAPKAPK2 (Homo sapiens)
pIC50: −log10 of the molar value.
The entries below come with measured pIC50 values attached.

smiles structure	target desc	pIC50
CN(C)C[C@H]1CN(c2ccc3c(c2)Cn2cc(-c4ccc(C#N)cc4)cc2-c2nccn2-3)C[C@H]1O	MAPKAPK2 (Homo sapiens)	7.00 to 7.30
CN(C)C[C@@H]1CCN(c2cc3c(cn2)-n2cnnc2-c2cc(-c4ccc(C#N)cc4)cn2C3)C1	MAPKAPK2 (Homo sapiens)	6.70 to 7.00
CNCC1CN(c2ccc3c(c2)Cn2cc(-c4ccc(F)cc4)cc2-c2nccn2-3)C1	MAPKAPK2 (Homo sapiens)	> 7.30
N#Cc1ccc(-c2cc3n(c2)Cc2cc(N4CCNCC4)ccc2-n2cnnc2-3)cc1	MAPKAPK2 (Homo sapiens)	6.70 to 7.00
C[C@@H](CO)N(C)C1CCN(c2ccc3c(c2)Cn2cc(-c4ccc(C#N)cc4)cc2-c2nncn2-3)CC1	MAPKAPK2 (Homo sapiens)	6.70 to 7.00
CNCC1CN(c2cc3c(cn2)-n2cnnc2-c2cc(-c4ccc(C#N)cc4)cn2C3)C1	MAPKAPK2 (Homo sapiens)	6.70 to 7.00
Fc1ccc(-c2cc3n(c2)Cc2cc(N4CC[C@@H](CNCC(F)F)C4)ccc2-n2ccnc2-3)cc1	MAPKAPK2 (Homo sapiens)	6.00 to 6.70
CN(C)[C@@H]1CN(c2ccc3c(c2)Cn2cc(-c4ccc(F)cc4)cc2-c2nccn2-3)C[C@H]1O	MAPKAPK2 (Homo sapiens)	> 7.30
N#Cc1ccc(-c2cc3n(c2)Cc2cc(N4CC5(CCNCC5)C4)ccc2-n2nnnc2-3)cc1	MAPKAPK2 (Homo sapiens)	6.70 to 7.00
CNCC1CN(c2cc3c(cn2)-n2cnnc2-c2cc(-c4ccc(F)cc4)cn2C3)C1	MAPKAPK2 (Homo sapiens)	7.00 to 7.30
N#Cc1ccc(-c2cc3n(c2)Cc2cc(N4CC[C@@H](CN5CCC(O)CC5)C4)ccc2-n2cnnc2-3)cc1	MAPKAPK2 (Homo sapiens)	> 7.30
CNC[C@H]1CCN(c2ccc3c(c2)Cn2cc(-c4ccc(C#N)cc4)cc2-c2ncnn2-3)C1	MAPKAPK2 (Homo sapiens)	6.70 to 7.00
CN(C)[C@H]1CN(c2ccc3c(n2)Cn2cc(-c4ccc(C#N)cc4)cc2-c2nccn2-3)C[C@@H]1O	MAPKAPK2 (Homo sapiens)	6.70 to 7.00
CN(C)[C@H]1CCN(c2ccc3c(c2)Cn2cc(-c4ccc(F)cc4)cc2-c2ncnn2-3)C1	MAPKAPK2 (Homo sapiens)	7.00 to 7.30
Fc1ccc(-c2cc3n(c2)Cc2cc(N4CC5(CCNC5)C4)ccc2-n2ccnc2-3)cc1	MAPKAPK2 (Homo sapiens)	> 7.30

* * *

Lab note: pIC50 readings collected with MAPKAPK2 (Homo sapiens) for the following compounds.
pIC50: −log10 of the molar value.

compound	pIC50
N#Cc1ccc(-c2cc3n(c2)Cc2cc(N4CC5(CCNC5)C4)ccc2-n2ncnc2-3)cc1	7.00 to 7.30
N[C@@H]1CN(c2ccc3c(c2)Cn2cc(-c4ccc(F)cc4)cc2-c2ncnn2-3)C[C@H]1CO (relative stereo)	6.70 to 7.00
CNCC[C@H]1CN(c2ccc3c(c2)Cn2cc(-c4ccc(F)cc4)cc2-c2nccn2-3)C[C@@H]1O (relative stereo)	> 7.30
CNCC1CN(c2ccc3c(c2)Cn2cc(-c4ccc(C#N)cc4)cc2-c2nncn2-3)C1	7.00 to 7.30
CN(C)C[C@H]1CCN(c2ccc3c(c2)Cn2cc(-c4ccc(F)cc4)cc2-c2ncnn2-3)C1	7.00 to 7.30
CN(C)C[C@@H]1CN(c2ccc3c(c2)Cn2cc(-c4ccc(C#N)cc4)cc2-c2nncn2-3)C[C@H]1O	> 7.30
CN(C)C[C@H]1CN(c2ccc3c(c2)Cn2cc(-c4ccc(F)cc4)cc2-c2ncnn2-3)C[C@@H]1O	> 7.30

* * *

Molecular target: MAPKAPK2 (Homo sapiens, UniProt P49137)
Test: MK2 Enzymatic Assay
Assay type: biochemical
Details: 0.5 nM MAPKAPK2, 3 μM ATP, 2 μM Ser/Thr4 peptide, 23° C., values given as concentration bins
Protocol: Briefly, 5 μL of 2× (4 μM) 100% phosphorylation peptide was delivered into the control wells of a 384-well assay plate. […] 5 μL of development reagent A was dispensed to all wells using Eppendorf electronic multiple channel pipette. After incubating the development reaction for 120 min, plates were read on a Perkin Elmer Envision instrument. Percent phosphorylation was calculated using the following formula: […]
The entries below come with measured IC50 values attached.

smiles structure	IC50
CN(C)C[C@H]1CN(c2ccc3c(n2)Cn2cc(-c4ccc(F)cc4)cc2-c2nccn2-3)C[C@@H]1O	< 50 nM
Cc1nnc2n1-c1ccc(N3CC[C@H](CN(C)C)C3)cc1Cn1cc(-c3ccc(C#N)cc3)cc1-2	50 to 100 nM
CNCc1cnc2n1-c1ccc(N3CC[C@@H](N(C)C)C3)cc1Cn1cc(-c3ccc(C#N)cc3)cc1-2	< 50 nM
CN1CC2(CCN(c3ccc4c(c3)Cn3cc(-c5ccc(F)cc5)cc3-c3nncn3-4)C2)C1	< 50 nM
CN[C@@H]1CCN(c2ccc3c(c2)Cn2c(cc(-c4ccc(C#N)cc4)c2Cl)-c2nncn2-3)C1	100 to 200 nM
N#Cc1ccc(-c2cc3n(c2)Cc2cc(N4CC[C@H](CN5CCC(O)CC5)C4)ccc2-n2ccnc2-3)cc1	< 50 nM
CNC[C@@H]1CCN(c2ccc3c(c2)Cn2cc(-c4ccc(C#N)cc4)cc2-c2ncnn2-3)C1	< 50 nM

* * *

Lab note: pIC50 readings collected with MAPKAPK2 (Homo sapiens) for the following compounds.
pIC50: −log10 of the molar value.

smiles structure	pIC50
CN(C)C[C@H]1CN(c2ccc3c(n2)Cn2cc(-c4ccc(C#N)cc4)cc2-c2nccn2-3)C[C@@H]1O	> 7.30
c1ccc(-c2cc3n(c2)Cc2cc(N4CCC5(CNC5)C4)ccc2-n2ccnc2-3)cc1	> 7.30
CN(C)C[C@@H]1CCN(c2ccc3c(c2)Cn2cc(-c4ccc(F)cc4)cc2-c2nccn2-3)C1	> 7.30
C[C@@H]1c2cc(N3C[C@@H](CN(C)C)[C@H](O)C3)ccc2-n2ccnc2-c2cc(-c3ccc(F)cc3)cn21	> 7.30
CN(C)[C@H]1CN(c2ccc3c(c2)Cn2cc(-c4ccc(C#N)cc4)cc2-c2nccn2-3)C[C@@H]1O	> 7.30
